- ASSAYED SYSTEM: Melanocortin receptor 4 (Mus musculus, UniProt P56450)
- Sequence (P56450 whole entry): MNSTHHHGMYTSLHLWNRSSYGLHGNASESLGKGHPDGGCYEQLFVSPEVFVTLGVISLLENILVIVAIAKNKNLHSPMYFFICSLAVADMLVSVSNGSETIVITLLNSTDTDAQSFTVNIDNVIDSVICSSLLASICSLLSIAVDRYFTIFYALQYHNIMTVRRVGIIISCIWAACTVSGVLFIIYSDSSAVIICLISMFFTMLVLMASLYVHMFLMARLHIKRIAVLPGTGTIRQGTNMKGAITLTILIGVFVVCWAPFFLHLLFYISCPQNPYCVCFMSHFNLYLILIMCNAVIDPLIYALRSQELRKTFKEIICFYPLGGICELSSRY
- PROTOCOL NOTES: Agonist activity at mouse MC4 receptor expressed in HEK-293 cells assessed as cAMP response measured after 2 hrs incubation by cAMP Alphascreen assay
pEC50: −log10 of the molar value. Peptide text beside a SMILES is read from it.
Parameter threshold = 7. Response is Fulfilled when pEC50 meets or exceeds it, else Not fulfilled.

>>> assigned_class("CC(=O)N[C@@H](Cc1c[nH]cn1)C(=O)N[C@@H](Cc1ccccc1)C(=O)N[C@@H](CCCN=C(N)N)C(=O)N[C@@H](Cc1c[nH]c2ccccc12)C(N)=O")
"Not fulfilled"
>>> assigned_class("CC(=O)N[C@@H](Cc1c[nH]cn1)C(=O)N[C@H](Cc1ccccc1)C(=O)N[C@@H](CCCNC(=N)N)C(=O)N[C@H](CC(N)=O)Cc1c[nH]c2ccccc12")
"Fulfilled"
>>> assigned_class("CC(=O)N[C@@H](Cc1ccccc1)C(=O)N[C@@H](CCCNC(=N)N)C(=O)N[C@@H](Cc1c[nH]c2ccccc12)C(N)=O (Ac-Phe-Arg-Trp-NH2)")
"Not fulfilled"
>>> assigned_class("CC(=O)N[C@@H](Cc1c[nH]cn1)C(=O)N[C@H](CC(=O)N[C@@H](CCCNC(=N)N)C(=O)N[C@@H](Cc1c[nH]c2ccccc12)C(N)=O)Cc1ccccc1")
"Not fulfilled"
>>> assigned_class("CC(=O)N[C@@H](Cc1cnc[nH]1)C(=O)N[C@H](Cc1ccccc1)C(=O)N[C@@H](CCCN=C(N)N)C(=O)N[C@@H](Cc1c[nH]c2ccccc12)C(N)=O")
"Fulfilled"
